Data credit: PubChem BioAssay (NCI)

- Test system: CAKI-1 renal
- testDetails: NCI-60 one-dose screen, 48 h (100 = growth as untreated, 0 = no growth, -100 = all killed)
- experimentalContext: 10 µM
This is part of a sample that, as a whole, favours compounds with a hit. Of some 83,000 tested, about 20% had one in any assay.
measuredEndpoint: growth (%)
Reply with just the number (in %).

Below, each entry is followed by its recorded growth result.
CCCCCCCCCCCCCC[n+]1ccc(C)cc1 : 31.7
O=c1cc(CSc2nnc(-c3ccccc3)n2-c2ccc(F)cc2)c2ccc3ccccc3c2o1 : 88.6
O=C(Nc1ccc(OS(=O)(=O)Cc2ccccc2)cc1)C12CC3CC(CC(C3)C1)C2 : 84.2
CCCc1ccnc(NS(=O)(=O)c2ccc(N)cc2)n1 : 103
CCOC(=O)c1c(C)n(-c2ccc(Cl)cc2)c2ccc(OC(=O)/C=C/c3ccccc3)cc12 : 103

Prompt: Check the records and state growth for CCOC(=O)c1sc(NC(=O)c2cc(OC)c(OC)c(OC)c2)nc1C
Response: 116

Prompt: Check the records and state growth for Cc1ccc(C)c(S(=O)(=O)NC2c3ccccc3Oc3ccccc32)c1
Response: 88.7

Prompt: Check the records and state growth for Cn1cnc([N+](=O)[O-])c1Sc1nnc(-c2ccccc2)c(-c2ccccc2)n1
Response: -7.14

Prompt: Check the records and state growth for CCN(CC)CCn1c(=N)n(CC(O)c2ccc(Cl)c(Cl)c2)c2ccccc21 (stereo not drawn)
Response: 75.4

Prompt: Check the records and state growth for C=C[C@]1(C)C=C2C(=O)[C@@]3(O)OC(=O)[C@@]4(CCCC(C)(C)[C@H]34)[C@@]2(O)CC1
Response: -90.6

Prompt: Check the records and state growth for CN(C1c2ccccc2Oc2ccccc21)S(=O)(=O)c1cc(Cl)ccc1Cl
Response: 54.2

Prompt: Check the records and state growth for Cc1cccc2c(Nc3ccc(NS(C)(=O)=O)cc3)c3ccc([N+](=O)[O-])cc3nc12
Response: 6.69

Prompt: Check the records and state growth for COc1cc(-c2cc(/C=C/C(C)=O)[nH]n2)cc(OC)c1OC
Response: 55.2

Prompt: Check the records and state growth for COc1ccc2oc(=O)cc(C3c4ccc([nH]4)C(c4cc(=O)oc5ccc(OC)cc45)c4ccc([nH]4)C(c4cc(=O)oc5ccc(OC)cc45)c4ccc([nH]4)C(c4cc(=O)oc5ccc(OC)cc45)c4ccc3[nH]4)c2c1 (stereo not drawn)
Response: -22.1

Prompt: Check the records and state growth for Cn1c([N+](=O)[O-])cnc1/C=C1\Oc2ccc(Br)cc2C1=O
Response: -21.6

Prompt: Check the records and state growth for C/C(=N\NC(=O)c1sc(=S)n(C)c1N)c1cc2ccccc2o1
Response: 50

Prompt: Check the records and state growth for C=CCOc1ccc2c(c1)CC[C@@H]1[C@@H]2CC[C@]2(C)C(=O)/C(=N/O)C[C@@H]12
Response: 10.7

Prompt: Check the records and state growth for CC(=O)/C(=C\c1ccc(Cl)cc1)c1ccccc1
Response: 15.6

Prompt: Check the records and state growth for COc1ccc(C2=Cc3ccc(OC(C)=O)cc3OC2)cc1
Response: 88.2

====

- Test system: M14 melanoma
- testDetails: NCI-60 one-dose screen, 48 h
- experimentalContext: 10 µM
About 83,000 compounds went through this panel and 20% of them were active in at least one assay; those are over-represented in the sample as a whole. Activity calls are given as the source filed them. Rule for the calls: active = growth percent below 10; inactive = the rest.
Form entry, call: pick from active, inactive

See these solved cases before continuing.
Cc1ccc(C)c(S(=O)(=O)NC2c3ccccc3Oc3ccccc32)c1 : inactive
COc1ccccc1NC1=C(N2CCCCC2)C(=O)c2ccccc2C1=O : inactive
CCCCOCCOCCOCc1cc2c(cc1Br)OCO2 : inactive
C/C=C\COc1cc(C)c(Cl)cc1Cl : inactive
O=NN(CCCl)C(=O)NCc1ccc(-c2ccc(CNC(=O)N(CCCl)N=O)cc2)cc1 : inactive
CS(=O)(=O)Nc1ccc(OCc2nnc(-c3ccc(Cl)cc3)o2)c(F)c1 : inactive
Fc1cc(-c2ncc(-c3cc(F)c(F)c(F)c3)c(NC3CCCCCC3)n2)cc(F)c1F : inactive
O=C(Nc1cccc([N+](=O)[O-])c1)NN1CCCCCC1 : inactive

Prompt: # outcome recorded in this test, key = O=S(=O)(O)C1(O)CCCCC1
Response: inactive

Prompt: # outcome recorded in this test, key = CC(Oc1ccc(Cl)cc1)c1ccccc1 (stereo not drawn)
Response: inactive

Prompt: # outcome recorded in this test, key = COc1ccc(-c2nc(SCC(=O)c3ccc(Br)cc3)[nH]c(=O)c2C#N)cc1
Response: inactive

Prompt: # outcome recorded in this test, key = COc1cccc(-c2nnc(COc3ccc(-c4nc5ccc(C)cc5[nH]4)cc3OC)o2)c1
Response: inactive

Prompt: # outcome recorded in this test, key = O=C1/C(=C/c2ccc([N+](=O)[O-])s2)Oc2ccc(Cl)cc21
Response: active

Prompt: # outcome recorded in this test, key = C(=C\c1nc2ccccc2s1)/c1ccc(N2CCOCC2)s1
Response: inactive

Prompt: # outcome recorded in this test, key = CC(C)OCc1cc(CN2CCN(c3cccc(Cl)c3)CC2)c(O)c2ncccc12
Response: active
